# Test system: Escherichia coli
# experimental parameters: Concentration 32 ug.mL-1;; ASSAY_TEST Inhibition of Bacterial Growth; detection method Absorption (OD600); MEDIA CAMHB; plate type 384well; NBS; CORNING #3640; time 18 hr
# Description: Antibacterial activity against Escherichia coli ATCC 25922 (CO-ADD:GN_001); MIC in CAMBH media using NBS plates, by OD(600)
Entries with a potency or affinity are not part of this list.
# Inhibition per entry
metric name: Inhibition (%)

entry smiles	metric name	units text	reading
COc1ccccc1-n1ccn2c(SCC(=O)Nc3ccc4c(c3)OCCO4)nnc2c1=O	Inhibition	%	-1.11
CC(C)c1nnc2c(SCC(=O)Nc3cccc(Br)c3)nc3ccccc3n12	Inhibition	%	-8.3
Cc1ccc(CNC(=O)Cn2nc3c(Oc4ccccc4C)nccn3c2=O)cc1	Inhibition	%	-1.39
COc1cccc(-n2ccn3c(SCC(=O)Nc4ccc(C(C)C)cc4)nnc3c2=O)c1	Inhibition	%	-24.97
CCc1nnc2c(SCC(=O)Nc3cc(Cl)ccc3C)nc3ccccc3n12	Inhibition	%	-0.41

All figures here come from ChEMBL document CHEMBL4513146.
